Would you kindly list normalized RNA/DNA level with ligand (log10) for each of these variants?
B1: library; a variant is named by its letters at N, in order (parent)
chain: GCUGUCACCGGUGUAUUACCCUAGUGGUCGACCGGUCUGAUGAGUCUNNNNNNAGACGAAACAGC

# Variants of: B1
# assay procedure: normalized RNA/DNA level with ligand (relative to sTRSVctl = 100) (log10 (% of sTRSVctl)); ligand: hypoxanthine (xanthine aptamer); higher = less ribozyme self-cleavage, higher mRNA level
# details: ligand concentration (+) RNA-Seq: 5 mM, HEK293T, reporter: mCherry (pCS4076), ligand present: yes
Give your answer as a number; write no unit.

[Q] Let me know recorded normalized RNA/DNA level with ligand (log10) for `GUGCAU` , thanks.
[A] 1.91

[Q] Let me know recorded normalized RNA/DNA level with ligand (log10) for `GCACAA` , thanks.
[A] 1.86

[Q] Let me know recorded normalized RNA/DNA level with ligand (log10) for `ACAUUG` , thanks.
[A] 1.91

[Q] Let me know recorded normalized RNA/DNA level with ligand (log10) for `GGGUGG` , thanks.
[A] 1.91

[Q] Let me know recorded normalized RNA/DNA level with ligand (log10) for `GGCCCA` , thanks.
[A] 1.95

[Q] Let me know recorded normalized RNA/DNA level with ligand (log10) for `GCAGCG` , thanks.
[A] 1.97

[Q] Let me know recorded normalized RNA/DNA level with ligand (log10) for `UACCAU` , thanks.
[A] 1.91

[Q] Let me know recorded normalized RNA/DNA level with ligand (log10) for `UAAUGG` , thanks.
[A] 1.87

[Q] Let me know recorded normalized RNA/DNA level with ligand (log10) for `AAGAUU` , thanks.
[A] 1.94

[Q] Let me know recorded normalized RNA/DNA level with ligand (log10) for `AGCCUA` , thanks.
[A] 1.99

[Q] Let me know recorded normalized RNA/DNA level with ligand (log10) for `AAGCGA` , thanks.
[A] 1.91

[Q] Let me know recorded normalized RNA/DNA level with ligand (log10) for `GCUGAU` , thanks.
[A] 1.97

[Q] Let me know recorded normalized RNA/DNA level with ligand (log10) for `UUGCAG` , thanks.
[A] 1.92

[Q] Let me know recorded normalized RNA/DNA level with ligand (log10) for `GGACGU` , thanks.
[A] 1.89

[Q] Let me know recorded normalized RNA/DNA level with ligand (log10) for `CUAACU` , thanks.
[A] 1.92

[Q] Let me know recorded normalized RNA/DNA level with ligand (log10) for `GACUAU` , thanks.
[A] 1.92

[Q] Let me know recorded normalized RNA/DNA level with ligand (log10) for `UAGUCA` , thanks.
[A] 1.94

[Q] Let me know recorded normalized RNA/DNA level with ligand (log10) for `GGAGUC` , thanks.
[A] 1.93

[Q] Let me know recorded normalized RNA/DNA level with ligand (log10) for `GCUUGU` , thanks.
[A] 1.93

[Q] Let me know recorded normalized RNA/DNA level with ligand (log10) for `AUACUA` , thanks.
[A] 1.91

[Q] Let me know recorded normalized RNA/DNA level with ligand (log10) for `UGCUCA` , thanks.
[A] 1.94

[Q] Let me know recorded normalized RNA/DNA level with ligand (log10) for `AUUGCU` , thanks.
[A] 1.92

[Q] Let me know recorded normalized RNA/DNA level with ligand (log10) for `UAACGU` , thanks.
[A] 1.91

[Q] Let me know recorded normalized RNA/DNA level with ligand (log10) for `CCUGAA` , thanks.
[A] 1.98

[Q] Let me know recorded normalized RNA/DNA level with ligand (log10) for `GCUAGA` , thanks.
[A] 1.92

[Q] Let me know recorded normalized RNA/DNA level with ligand (log10) for `AGGUUC` , thanks.
[A] 1.94

[Q] Let me know recorded normalized RNA/DNA level with ligand (log10) for `GCAAAC` , thanks.
[A] 1.91

[Q] Let me know recorded normalized RNA/DNA level with ligand (log10) for `AAUUCA` , thanks.
[A] 1.93

[Q] Let me know recorded normalized RNA/DNA level with ligand (log10) for `CAGCUC` , thanks.
[A] 2.03

[Q] Let me know recorded normalized RNA/DNA level with ligand (log10) for `AUAUCC` , thanks.
[A] 1.94

[Q] Let me know recorded normalized RNA/DNA level with ligand (log10) for `GCGAGG` , thanks.
[A] 1.64

[Q] Let me know recorded normalized RNA/DNA level with ligand (log10) for `GCUCUC` , thanks.
[A] 1.98

[Q] Let me know recorded normalized RNA/DNA level with ligand (log10) for `GCGCUA` , thanks.
[A] 1.88

[Q] Let me know recorded normalized RNA/DNA level with ligand (log10) for `UCAGUG` , thanks.
[A] 1.93

[Q] Let me know recorded normalized RNA/DNA level with ligand (log10) for `UAGUCC` , thanks.
[A] 1.97

[Q] Let me know recorded normalized RNA/DNA level with ligand (log10) for `GACAUA` , thanks.
[A] 1.91

[Q] Let me know recorded normalized RNA/DNA level with ligand (log10) for `AUUCCG` , thanks.
[A] 1.93

[Q] Let me know recorded normalized RNA/DNA level with ligand (log10) for `ACUGUU` , thanks.
[A] 1.94

[Q] Let me know recorded normalized RNA/DNA level with ligand (log10) for `UCUCUC` , thanks.
[A] 2.03

[Q] Let me know recorded normalized RNA/DNA level with ligand (log10) for `CCCGUA` , thanks.
[A] 1.92

[Q] Let me know recorded normalized RNA/DNA level with ligand (log10) for `AUCUGC` , thanks.
[A] 1.97

[Q] Let me know recorded normalized RNA/DNA level with ligand (log10) for `GAUACC` , thanks.
[A] 1.95

[Q] Let me know recorded normalized RNA/DNA level with ligand (log10) for `CCUGGU` , thanks.
[A] 1.95

[Q] Let me know recorded normalized RNA/DNA level with ligand (log10) for `GUCCAG` , thanks.
[A] 1.86

[Q] Let me know recorded normalized RNA/DNA level with ligand (log10) for `GUCGGU` , thanks.
[A] 1.91

[Q] Let me know recorded normalized RNA/DNA level with ligand (log10) for `UCGUCC` , thanks.
[A] 1.98

[Q] Let me know recorded normalized RNA/DNA level with ligand (log10) for `UCGAGC` , thanks.
[A] 1.97

[Q] Let me know recorded normalized RNA/DNA level with ligand (log10) for `AUGUCU` , thanks.
[A] 1.96

[Q] Let me know recorded normalized RNA/DNA level with ligand (log10) for `GUGCCC` , thanks.
[A] 1.93

[Q] Let me know recorded normalized RNA/DNA level with ligand (log10) for `CCCUCA` , thanks.
[A] 1.98

[Q] Let me know recorded normalized RNA/DNA level with ligand (log10) for `CGCUUA` , thanks.
[A] 1.86

[Q] Let me know recorded normalized RNA/DNA level with ligand (log10) for `CGGUAU` , thanks.
[A] 1.79

[Q] Let me know recorded normalized RNA/DNA level with ligand (log10) for `GAAUGG` , thanks.
[A] 1.76

[Q] Let me know recorded normalized RNA/DNA level with ligand (log10) for `CAGCGG` , thanks.
[A] 1.9

[Q] Let me know recorded normalized RNA/DNA level with ligand (log10) for `UUUAGA` , thanks.
[A] 1.93

[Q] Let me know recorded normalized RNA/DNA level with ligand (log10) for `CCAUGG` , thanks.
[A] 1.85

[Q] Let me know recorded normalized RNA/DNA level with ligand (log10) for `CGUAGU` , thanks.
[A] 1.99

[Q] Let me know recorded normalized RNA/DNA level with ligand (log10) for `GGUGCA` , thanks.
[A] 1.92

[Q] Let me know recorded normalized RNA/DNA level with ligand (log10) for `AACUUC` , thanks.
[A] 1.96

[Q] Let me know recorded normalized RNA/DNA level with ligand (log10) for `CGAUAU` , thanks.
[A] 1.91

[Q] Let me know recorded normalized RNA/DNA level with ligand (log10) for `UUAGUU` , thanks.
[A] 1.95

[Q] Let me know recorded normalized RNA/DNA level with ligand (log10) for `ACCUCG` , thanks.
[A] 1.93

[Q] Let me know recorded normalized RNA/DNA level with ligand (log10) for `CGACGC` , thanks.
[A] 1.92

[Q] Let me know recorded normalized RNA/DNA level with ligand (log10) for `GACGAC` , thanks.
[A] 1.93

[Q] Let me know recorded normalized RNA/DNA level with ligand (log10) for `AUGCCA` , thanks.
[A] 1.91

[Q] Let me know recorded normalized RNA/DNA level with ligand (log10) for `CAUGCG` , thanks.
[A] 1.92

[Q] Let me know recorded normalized RNA/DNA level with ligand (log10) for `GACUGC` , thanks.
[A] 1.91

[Q] Let me know recorded normalized RNA/DNA level with ligand (log10) for `CUCGAC` , thanks.
[A] 1.96

[Q] Let me know recorded normalized RNA/DNA level with ligand (log10) for `GACCCC` , thanks.
[A] 1.94

[Q] Let me know recorded normalized RNA/DNA level with ligand (log10) for `UAGGCU` , thanks.
[A] 1.96

[Q] Let me know recorded normalized RNA/DNA level with ligand (log10) for `AUGCCC` , thanks.
[A] 1.97

[Q] Let me know recorded normalized RNA/DNA level with ligand (log10) for `AUCGGC` , thanks.
[A] 1.97

[Q] Let me know recorded normalized RNA/DNA level with ligand (log10) for `AUACCU` , thanks.
[A] 1.99

// data source = the supplement of paper PMC6757056
